As shown below, each of these sequences has a reported IC50 value.
TESTED_ON: HLA-B*53:01
MEASUREMENT_NOTES: IEDB peptide-MHC binding, purified MHC/competitive/radioactivity; bounds were set here for any values at or beyond the usual limits of such assays
CONDITION_PARAMETERS: source organism: Bordetella pertussis
Respond numerically; units are µM and should not be typed.

Return reported IC50. Input sequence: VPVSEHCTV 69.9

For the sequence LAAGAGLTL , report IC50. 58.7

* * *

TESTED_ON: HLA-A*02:01
MEASUREMENT_NOTES: IEDB peptide-MHC binding, purified MHC/competitive/radioactivity; bounds were set here for any values at or beyond the usual limits of such assays
CONDITION_PARAMETERS: source organism: Bordetella pertussis
Reported IC50 values for the following sequences.
The response must be a number in µM with no trailing unit.

Previously resolved entries follow.
Could you please provide reported IC50 for WVMTDNSNV ? Thanks! 29.2

Tell me its IC50 given ITSYVGFSV as the entry. 4.39

Read off the recorded IC50 for RLRKMLYLI 14.9

Turning now to a further sequence:
Using the record for IVVEAGELV , state its measured IC50. 9.86

* * *

TESTED_ON: HLA-B*07:02
MEASUREMENT_NOTES: IEDB peptide-MHC binding, purified MHC/competitive/radioactivity; bounds were set here for any values at or beyond the usual limits of such assays
CONDITION_PARAMETERS: source organism: Bordetella pertussis
PROPERTY_LABEL: IC50 (µM)
Reply with just the number (in µM).

Worked examples, 4 sequences total:
Given the sequence GIVIPPKAL , write its reported IC50. 69.6

Note IC50 for the sequence shown: CFGKDLKRP 69.6

Provide IC50 value for the following sequence: LAAGAGLTL 7.38

For the sequence RPQITDAVT , report IC50. 16.3

Next:
Please list IC50 recorded for the sequence RTHGVGASL 1.58

* * *

TESTED_ON: HLA-B*44:03
MEASUREMENT_NOTES: IEDB peptide-MHC binding, purified MHC/competitive/radioactivity; bounds were set here for any values at or beyond the usual limits of such assays
CONDITION_PARAMETERS: source organism: Bordetella pertussis
Overview of recorded pIC50 for various sequences
Here pIC50 is given on a logarithmic scale as minus log10 of the concentration in mol/L.

Enter pIC50 (test system HLA-B*44:03) for MESNKDIVI 5.00

Further cases:
# return pIC50 of GELMAAQVA (system: HLA-B*44:03) 6.24
